TEST_DESCRIPTION: Ames microplate format (MPF) assay, TA98
STATED_CONDITIONS: Salmonella typhimurium

COMPOUND: O=[N+]([O-])c1ccc2c(c1)Cc1ccccc1-2 [2-NF, 2-nitrofluorene, reference compound]
fold induction at 90 min, 2 µg/mL: 6.4

* * *

TEST_DESCRIPTION: Neurotoxicity (TOX), rotarod test, mice
Format: in vivo
STATED_CONDITIONS: mouse, in vivo, po, rotarod, 0.25 h, 95% confidence interval in parentheses

COMPOUND: C[C@H](O)CNC(=O)/C=C/c1ccccc1 [KM-568]
TD50 at 0.25 h, mg/kg: 344

* * *

TEST_DESCRIPTION: Ames microplate format (MPF) assay, TA98
STATED_CONDITIONS: Salmonella typhimurium

MOLECULE: C[C@H](O)CNC(=O)/C=C/c1ccccc1 [KM-568]
fold induction at 90 min, 0.1 mM: 0.1

* * *

TEST_DESCRIPTION: In vitro metabolism, mouse liver microsomes
Assay type: in vitro ADME
STATED_CONDITIONS: pH 7.4; mouse liver microsomes, 20 μM; read-out: half-life time (t1/2)
READOUT_KIND: half-life at 20 μM (h)

CHEMICAL_SMILES: C[C@H](O)CNC(=O)/C=C/c1ccccc1
READOUT_KIND: half-life at 20 μM
VALUE_OBSERVED: 2.14
